study-system: T1, TRKA protein with a histidine tag (human, UniProt P04629 33-423, limits assumed)
T1 construct: it is put last here only for order; also called TRKA (50 µg/ml, 75 kDa, provided by HEC Labs); not shown: histidine tag
T1 sequence (P04629 33-423 limits assumed): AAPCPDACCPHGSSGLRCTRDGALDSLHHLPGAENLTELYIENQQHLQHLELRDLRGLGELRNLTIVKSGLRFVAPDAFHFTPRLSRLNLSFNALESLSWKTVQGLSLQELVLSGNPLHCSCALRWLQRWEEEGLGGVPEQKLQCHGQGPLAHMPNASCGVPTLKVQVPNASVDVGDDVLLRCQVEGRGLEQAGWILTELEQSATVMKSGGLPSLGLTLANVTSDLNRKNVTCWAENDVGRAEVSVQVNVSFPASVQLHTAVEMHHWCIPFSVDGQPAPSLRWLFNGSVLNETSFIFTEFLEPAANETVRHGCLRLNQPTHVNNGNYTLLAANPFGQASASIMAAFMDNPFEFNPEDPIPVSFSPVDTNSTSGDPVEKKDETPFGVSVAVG
experimental-protocol: BLI (Fortebio Octet RED96), His-tagged TRKA on Ni-NTA sensor, antibody 80-2.93 nM
# koff values compiled below
Please respond with the number in s⁻¹ and leave the unit unwritten.

{"binder": "23E12 chimeric antibody (antibody, human IgG4 S228P, kappa, F234A L235A, V domains shown, expressed in CHO cells) VH: QVQLQQSGAELVRPGTSVKISCKASGYAFTNYWLGWMKQRPGHGLEWIGDFYPRTGNTFYNENFKGKVTLTADKSSNTAYMQLSSLTSEDSAVYLCARAGTGFDYWGQGTTLTVSS VL: SIVMTQSPKSMSMSVGERVTLSCKASENVGGYVSWYQQKPDQSPKLLIYGASSRHTGVPDRFTGSGSETDFTLTISSVQAEDLAAYHCGQNYIYPFTFGGGTKLEIKR", "units-of-measure": "s⁻¹", "koff": 0.000109}
{"binder": "2A5 chimeric antibody (antibody, human IgG4 S228P, kappa, F234A L235A, V domains shown, expressed in CHO cells) VH: EVQLQQSGPELVKPGASMKISCKASGYSFTGYTMNWVKQSHGKNLEWIGLINPYNGGTNYNQKFKGKATLTVDKSSSTAYMELLSLTSEDSAVYYCAFSYYGSRGFYFDYWGQGTTLTVSS VL: QIVLTQSPALMSASPGEKVTMTCSATSSVSYIYWYQQKPRSSPKPWIYLTSNLASGVPARFSGSGSGTSYSLTISSMEAEDAATYYCQQWSSNPPTFGGGTKLEIKR", "units-of-measure": "s⁻¹", "koff": "3.6e-06"}

As a next step, examine the binder that follows.
[Q] Suppose we examine the binder 2008 chimeric antibody (antibody, human IgG4 S228P, kappa, F234A L235A, V domains shown, also called 20C8) VH: EVLLQQSGPELVKPGASMKISCKASVYSFTAYTMNWVKQSHGKNLEWIGLINPHNGGTRYNQKFKGKATLTLDKSSSTAYMDLLSLTSEDSAVYYCAISRYGSSSFYFDVWGAGTTVAVSS VL: QIVLSQSPAILSASPGEKVTMTCRASSSISYMHWYQQKPGSSPKPWISATSNLASGVPARFSGSGSGTSYSLTISGVEAEDAATYYCQQWSSNPPTFGGGTNLEIKR ; what koff value has been reported?
[A] 6.33e-05
